Source listed as the RNAGym collection of RNA variant scans (doi:10.7554/elife.80360).

B1: HDV Ribozyme (parent)
chain: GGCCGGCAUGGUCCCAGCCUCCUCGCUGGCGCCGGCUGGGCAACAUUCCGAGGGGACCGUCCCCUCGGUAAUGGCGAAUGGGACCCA

Variants of: B1
Experiment: self-cleavage, relative activity (ratio to wild type); higher = more cleavage; co-transcriptional
Given measured self-cleavage, output 1 (yes) if it is greater than or equal to 0.6 and 0 (no) if not.

- U20C C58G: 0 (no)
- C14A C21U: 0 (no)
- U20C C21A: 0 (no)
- A70G G74A: 0 (no)
- U12G A70U: 1 (yes)
- G80U G82C: 0 (no)
- C30G C36U: 0 (no)
- G28U U72C: 0 (no)
- G6U C22A: 0 (no)
- U60C: 1 (yes)
- C30A A77G: 0 (no)
- G50U G59U: 1 (yes)
- U60G C86G: 1 (yes)
- C7U G35C: 0 (no)
- A56C G81C: 0 (no)
- U9A A43G: 1 (yes)
